System: Mycobacterium tuberculosis
Test: Binding affinity to wild type Mycobacterium tuberculosis Pks13-TE expressed in Escherichia coli BL21(DE3)pLysS assessed as change in melting temperature at protein to compound molar ratio of 1:5 incubated for 30 mins by nanoDSF assay
// NB: equality with 7 °C counts as Not satisfied; only ΔTm strictly below is Satisfied

>>> print(df.to_string())
                           molecular_string    label_value
0  O=c1oc2ccccc2c2[nH]c3ccc(O)c(CN4CCCCC4)c3c12      Satisfied
1  COc1ccc2c(c1)[nH]c(=O)c1c2oc2ccc(O)c(CN3CCCCC3)c21  Not satisfied
2  CCOC(=O)c1c(-c2ccccc2)sc2ccc(O)c(CN3CCCCC3)c12      Satisfied
3  O=c1[nH]c2ccccc2c2oc3ccc(O)c(CN4CCCCC4)c3c12  Not satisfied
4  O=c1[nH]c2ccc(O)cc2c2oc3ccc(O)c(CN4CCCCC4)c3c12  Not satisfied
5  O=c1[nH]c2cc(O)ccc2c2oc3ccc(O)c(CN4CCCCC4)c3c12  Not satisfied
6  O=c1oc2ccccc2c2sc3ccc(O)c(CN4CCCCC4)c3c12  Not satisfied

====

System: Mycobacterium tuberculosis
Assay: Antitubercular activity against Mycobacterium tuberculosis H37Rv assessed as bacterial growth inhibition incubated for 4 days by MABA assay
Type: functional
Settings: time 4 day
// NB: equality with 0.5 µg/mL counts as 0.0; only MIC=<90 strictly below is 1.0

In [3]: df
Out[3]:
                            molecular_string  label_value
 0  COc1cc2c(cc1C(=O)N1CCCCC1)oc1c3ccccc3oc(=O)c21          0.0
 1  CCNC(=O)c1c(-c2ccc(OC)cc2)oc2ccc(O)c(CN3CCCCC3)c12          0.0
 2  O=c1oc2ccccc2c2[nH]c3ccc(O)c(CN4CCCCC4)c3c12          0.0
 3  O=c1oc2cc(O)ccc2c2oc3ccc(O)c(CN4CCCCC4)c3c12          1.0
 4  O=c1[nH]c2ccc(O)cc2c2oc3ccc(O)c(CN4CCCCC4)c3c12          0.0
 5  COc1ccc2[nH]c(=O)c3c(oc4ccc(O)c(CN5CCCCC5)c43)c2c1          0.0
 6  CCOC(=O)c1c(-c2ccccc2)[nH]c2ccc(O)c(CN3CCCCC3)c12          0.0
 7  O=c1[nH]c2c(Cl)cccc2c2oc3ccc(O)c(CN4CCCCC4)c3c12          0.0
 8  COc1ccc2c(c1)[nH]c(=O)c1c2oc2ccc(O)c(CN3CCCCC3)c21          1.0
 9  O=c1[nH]c2ccc(Cl)cc2c2oc3ccc(O)c(CN4CCCCC4)c3c12          0.0
10  O=c1[nH]c2ccc(Br)cc2c2oc3ccc(O)c(CN4CCCCC4)c3c12          0.0
11  CCNC(=O)c1c(-c2ccc(F)cc2)oc2ccc(O)c(CN3CCCCC3)c12          0.0
12  O=c1[nH]c2ccccc2c2oc3ccc(O)c(CN4CCCCC4)c3c12          1.0
13  CCOC(=O)c1c(-c2ccccc2)oc2cc(C(=O)N3CCCCC3)c(OC)cc12          0.0
14  O=c1[nH]c2ccc(F)cc2c2oc3ccc(O)c(CN4CCCCC4)c3c12          0.0
15  O=c1oc2ccccc2c2oc3cc(Br)c(O)c(CN4CCCCC4)c3c12          0.0
16  CCOC(=O)c1c(-c2ccccc2)sc2ccc(O)c(CN3CCCCC3)c12          0.0
17  CCOC(=O)c1c(-c2ccccc2)oc2ccc(OC)c(C(=O)N3CCCCC3)c12          0.0

====

System: Mycobacterium tuberculosis
Experiment: Antitubercular activity against Mycobacterium tuberculosis H37Rv assessed as bacterial growth inhibition incubated for 4 days by MABA assay
Type: functional
Settings: time 4 day
Overview of reported MIC=<90 across a group of molecules:
measured quantity: MIC=<90 (µg/mL)

In [3]: df
Out[3]:
                           molecular_string  limit_sign  numeric_readout
0  O=c1[nH]c2cc(O)ccc2c2oc3ccc(O)c(CN4CCCCC4)c3c12           =           0.0313
1  CNC(=O)c1c(-c2ccc(O)cc2)oc2ccc(O)c(CN3CCCCC3)c12           =           0.0313
2  O=c1[nH]c2cc(Cl)ccc2c2oc3ccc(O)c(CN4CCCCC4)c3c12           =              0.5
3  CCOC(=O)c1c(-c2ccccc2)oc2cc(Br)c(O)c(CN3CCCCC3)c12           =               32
4  CCOC(=O)c1c(-c2ccccc2)oc2ccc(O)c(CN3CCCCC3)c12           =                2
5  O=c1oc2ccccc2c2sc3ccc(O)c(CN4CCCCC4)c3c12           =                1
6  O=c1oc2ccccc2c2oc3ccc(O)c(CN4CCCCC4)c3c12           =            0.125
7  CCNC(=O)c1c(-c2ccccc2)oc2ccc(O)c(CN3CCCCC3)c12           =                4
8  COc1ccc2oc3c4ccccc4oc(=O)c3c2c1C(=O)N1CCCCC1           >               64

====

Tested on: Mycobacterium tuberculosis
Test: Binding affinity to wild type Mycobacterium tuberculosis Pks13-TE expressed in Escherichia coli BL21(DE3)pLysS assessed as change in melting temperature at protein to compound molar ratio of 1:10 incubated for 30 mins by nanoDSF assay
Overview of reported ΔTm across a group of molecules:
measured quantity: ΔTm (°C)

>>> print(df.to_string())
                           molecular_string  measured_quantity  display_unit  numeric_readout
0  COc1ccc2c(c1)[nH]c(=O)c1c2oc2ccc(O)c(CN3CCCCC3)c21                ΔTm            °C                9
1  O=c1[nH]c2ccccc2c2oc3ccc(O)c(CN4CCCCC4)c3c12                ΔTm            °C             10.2
2  O=c1oc2ccccc2c2[nH]c3ccc(O)c(CN4CCCCC4)c3c12                ΔTm            °C              3.1

====

Tested on: Mycobacterium tuberculosis
Experiment: Antitubercular activity against Mycobacterium tuberculosis H37Rv assessed as bacterial growth inhibition incubated for 4 days by MABA assay
Type: functional
Details: time 4 day
Overview of reported MIC=<90 across a group of compounds:
measured quantity: MIC=<90 (µg/mL)

>>> df
                           molecular_string  display_unit  numeric_readout
0  O=c1[nH]c2cc(Br)ccc2c2oc3ccc(O)c(CN4CCCCC4)c3c12         µg/mL              0.5
1  O=c1[nH]c2c(F)cccc2c2oc3ccc(O)c(CN4CCCCC4)c3c12         µg/mL              0.5
2  O=c1[nH]c2cc(F)ccc2c2oc3ccc(O)c(CN4CCCCC4)c3c12         µg/mL              0.5
